Tested on: panel of 55 breast cancer cell lines
Assay: Cell growth inhibition assay (Cell Titer Glo, 72 h, 9 doses; GI50, TGI, LC50)
Assay type: cell-based, human
Conditions: MCF7 cell line; censored GI50 values; value is the negative log10 of mol/L
measurement_name: GI50

Qu. Endpoint output: GI50 of Cc1cc(C(=O)N2CCN(c3cccc(Cl)c3)CC2)n(-c2ccccc2)n1 [XRP44X] . Value?
Ans. 6.40

Qu. Endpoint output: GI50 of `CCn1cc(-c2ccnc3[nH]c(-c4cccc(CN(C)C)c4)cc23)c(-c2ccc(NC(=O)N(C)C)cc2)n1` . Value?
Ans. 5.06

Qu. Endpoint output: GI50 of `CC(/C=C/C(=O)NO)=C\[C@@H](C)C(=O)c1ccc(N(C)C)cc1` . Value?
Ans. 5.16

Qu. Endpoint output: GI50 of `C=CCNC1=C2C[C@@H](C)C[C@H](OC)[C@H](O)[C@@H](C)/C=C(\C)[C@H](OC(N)=O)[C@@H](OC)/C=C\C=C(/C)C(=O)NC(=CC1=O)C2=O` . Value?
Ans. 6.25

Qu. Endpoint output: GI50 of C[C@@H](Oc1cc(-n2cnc3ccc(CN4CCN(C)CC4)cc32)sc1C(N)=O)c1ccccc1C(F)(F)F [GSK461364A] . Value?
Ans. 7.82

More entries:
Qu. Endpoint output: GI50 of CNC(=O)c1c(F)cccc1Nc1nc(Nc2cc3c(cc2OC)CCN3C(=O)CN(C)C)nc2[nH]ccc12 [GSK1838705A] . Value?
Ans. 5.89

Qu. Endpoint output: GI50 of `CC(C)Oc1ccc(C(=O)N[C@H](CNC(=O)CN(C)C)Cc2ccc(-c3cn4cccc([C@H](C)O)c4n3)cc2)cc1Cl` . Value?
Ans. 5.90

Qu. Endpoint output: GI50 of CCNCCCCNCCCCNCCCCNCCCCNCC=CCNCCCCNCCCCNCCCCNCCCCNCC.Cl.Cl.Cl.Cl.Cl.Cl.Cl.Cl.Cl.Cl (stereo in doubt) . Value?
Ans. 6.33

Qu. Endpoint output: GI50 of `CC(C)[C@H](CO)Nc1nc(Nc2cccc(Cl)c2)c2ncn(C(C)C)c2n1` . Value?
Ans. 4.80

* * *

System: panel of 55 breast cancer cell lines
Experiment: Cell growth inhibition assay (Cell Titer Glo, 72 h, 9 doses; GI50, TGI, LC50)
Type: cell-based, human
Details: cell line SUM1315MO; value is the negative log10 of mol/L
Listed molecules paired with reported GI50
Please state the value as a number alone, without comment.

Take a look at these entries with their results.
Qu. // fetch panel of 55 breast cancer cell lines GI50 for `COc1cccc(-c2cc(=O)c3ccccc3o2)c1N`
Ans. 4.30

Qu. // fetch panel of 55 breast cancer cell lines GI50 for `COc1ccc(C2=N[C@@H](c3ccc(Cl)cc3)[C@@H](c3ccc(Cl)cc3)N2C(=O)N2CCNC(=O)C2)c(OC(C)C)c1`
Ans. 4.67

Qu. // fetch panel of 55 breast cancer cell lines GI50 for `CC(C)[C@H](CO)Nc1nc(Nc2cccc(Cl)c2)c2ncn(C(C)C)c2n1`
Ans. 5.09

// next entry
Qu. // fetch panel of 55 breast cancer cell lines GI50 for `CCn1cc(-c2ccnc3[nH]c(-c4cccc(CN(C)C)c4)cc23)c(-c2ccc(NC(=O)N(C)C)cc2)n1`
Ans. 5.89

* * *

System: panel of 55 breast cancer cell lines
Assay: Cell growth inhibition assay (Cell Titer Glo, 72 h, 9 doses; GI50, TGI, LC50)
Assay type: cell-based, human
Conditions: Homo sapiens, UACC-893, cell line UACC893; read-out: GI50 (converted)
measurement_name: GI50 (nM)
Give the quantity in nM, number only.

Qu. Endpoint output: GI50 of `CCC1=C[C@@H]2CN(C1)Cc1c([nH]c3ccccc13)[C@@](C(=O)OC)(c1cc3c(cc1OC)N(C)[C@H]1[C@@](O)(C(=O)OC)[C@H](OC(C)=O)[C@]4(CC)C=CCN5CC[C@]31[C@@H]54)C2` . Value?
Ans. 11

// next entry
Qu. Endpoint output: GI50 of `CC(=O)O[C@H]1C(=O)[C@@]2(C)[C@H]([C@H](OC(=O)c3ccccc3)[C@]3(O)C[C@H](OC(=O)[C@H](O)[C@@H](NC(=O)c4ccccc4)c4ccccc4)C(C)=C1C3(C)C)[C@]1(OC(C)=O)CO[C@@H]1C[C@@H]2O` . Value?
Ans. 11.7

* * *

Tested on: panel of 55 breast cancer cell lines
Assay: Cell growth inhibition assay (Cell Titer Glo, 72 h, 9 doses; GI50, TGI, LC50)
Type: cell-based, human
Details: Homo sapiens, SUM52PE, cell line SUM52PE; read-out: GI50 (converted)
measurement_name: GI50 (µM)
Give the quantity in µM, number only.

Take a look at these entries with their results.
Qu. // fetch panel of 55 breast cancer cell lines GI50 for `CC(=O)O[C@@]12CO[C@@H]1C[C@H](O)[C@@]1(C)C(=O)[C@H](O)C3=C(C)[C@@H](OC(=O)[C@H](O)[C@@H](NC(=O)OC(C)(C)C)c4ccccc4)C[C@@](O)([C@@H](OC(=O)c4ccccc4)[C@H]21)C3(C)C`
Ans. 0.00182

Qu. // fetch panel of 55 breast cancer cell lines GI50 for `Cn1cnc2c(F)c(Nc3ccc(Br)cc3Cl)c(C(=O)NOCCO)cc21`
Ans. 9.77

Qu. // fetch panel of 55 breast cancer cell lines GI50 for CN(Cc1cnc2nc(N)nc(N)c2n1)c1ccc(C(=O)N[C@@H](CCC(=O)O)C(=O)O)cc1 [Methotrexate]
Ans. 331

Qu. // fetch panel of 55 breast cancer cell lines GI50 for `CCC1=C[C@@H]2CN(C1)Cc1c([nH]c3ccccc13)[C@@](C(=O)OC)(c1cc3c(cc1OC)N(C)[C@H]1[C@@](O)(C(=O)OC)[C@H](OC(C)=O)[C@]4(CC)C=CCN5CC[C@]31[C@@H]54)C2`
Ans. 0.00537

More entries:
Qu. // fetch panel of 55 breast cancer cell lines GI50 for C/C(=C\c1csc(C)n1)[C@@H]1C[C@@H]2O[C@]2(C)CCC[C@H](C)[C@H](O)[C@@H](C)C(=O)C(C)(C)[C@@H](O)CC(=O)N1 [Ixabepilone]
Ans. 0.00295

Qu. // fetch panel of 55 breast cancer cell lines GI50 for `Cn1c(=O)n(-c2ccc(C(C)(C)C#N)cc2)c2c3cc(-c4cnc5ccccc5c4)ccc3ncc21`
Ans. 17

Qu. // fetch panel of 55 breast cancer cell lines GI50 for `Cc1cncc2cccc(S(=O)(=O)N3CCCN(C(=O)CN)C[C@@H]3C)c12`
Ans. 9.12

Qu. // fetch panel of 55 breast cancer cell lines GI50 for `CCN(CC)CCCCNc1ncc2cc(-c3cc(OC)cc(OC)c3)c(NC(=O)NC(C)(C)C)nc2n1`
Ans. 0.0229

Qu. // fetch panel of 55 breast cancer cell lines GI50 for `CO[C@H]1C[C@@H]2CC[C@@H](C)[C@@](O)(O2)C(=O)C(=O)N2CCCC[C@H]2C(=O)O[C@H]([C@H](C)C[C@@H]2CC[C@@H](O)[C@H](OC)C2)CC(=O)[C@H](C)/C=C(\C)[C@@H](O)[C@@H](OC)C(=O)[C@H](C)C[C@H](C)/C=C/C=C/C=C/1C`
Ans. 0.00302

Qu. // fetch panel of 55 breast cancer cell lines GI50 for `CC(=O)O[C@H]1C(=O)[C@@]2(C)[C@H]([C@H](OC(=O)c3ccccc3)[C@]3(O)C[C@H](OC(=O)[C@H](O)[C@@H](NC(=O)c4ccccc4)c4ccccc4)C(C)=C1C3(C)C)[C@]1(OC(C)=O)CO[C@@H]1C[C@@H]2O`
Ans. 0.0049

Qu. // fetch panel of 55 breast cancer cell lines GI50 for `COC1=C2C[C@@H](C)C[C@H](OC)[C@H](O)[C@@H](C)/C=C(\C)[C@H](OC(N)=O)[C@@H](OC)/C=C\C=C(/C)C(=O)NC(=CC1=O)C2=O`
Ans. 0.012

* * *

System: panel of 55 breast cancer cell lines
Test: Cell growth inhibition assay (Cell Titer Glo, 72 h, 9 doses; GI50, TGI, LC50)
Assay type: cell-based, human
Details: cell line HCC1143; value is the negative log10 of mol/L
Listed compounds paired with reported GI50
Please state the value as a number alone, without comment.

Take a look at these entries with their results.
Qu. Endpoint output: GI50 of CCNCCCCNCCCCNCCCCNCCCCNCC=CCNCCCCNCCCCNCCCCNCCCCNCC.Cl.Cl.Cl.Cl.Cl.Cl.Cl.Cl.Cl.Cl (stereo in doubt) . Value?
Ans. 6.88

Qu. Endpoint output: GI50 of `NS(=O)(=O)c1ccc(Nc2nc(OCC3CCCCC3)c3[nH]cnc3n2)cc1` . Value?
Ans. 4.87

Qu. Endpoint output: GI50 of `COc1cccc(-c2cc(=O)c3ccccc3o2)c1N` . Value?
Ans. 4.00

// next entry
Qu. Endpoint output: GI50 of `O=c1[nH]c(=O)n([C@H]2C[C@H](O)[C@@H](CO)O2)cc1F` . Value?
Ans. 3.69
